target: BaF3 EML4-ALK (Homo sapiens, UniProt Q9UM73); construct: The EML4-ALK gene (variant 1) was synthesized at GenScript and cloned into pCDH-CMV-MCS-EF1-Puro plasmid (System Biosciences, Inc); fused on or other part: EML4 N-terminal part (variant 1: exons 1-13, with the coiled-coil that oligomerises the fusion) fused to the intracellular part of ALK, which contains the kinase domain; Q9HC35 (Echinoderm microtubule-associated protein-like 4); test: Cell proliferation assay (CellTiter-Glo); format: cell-based; conditions: anti-cell proliferation, 72 hours
Sequence (Q9UM73 whole entry, stated change not applied, the tested form may be a part): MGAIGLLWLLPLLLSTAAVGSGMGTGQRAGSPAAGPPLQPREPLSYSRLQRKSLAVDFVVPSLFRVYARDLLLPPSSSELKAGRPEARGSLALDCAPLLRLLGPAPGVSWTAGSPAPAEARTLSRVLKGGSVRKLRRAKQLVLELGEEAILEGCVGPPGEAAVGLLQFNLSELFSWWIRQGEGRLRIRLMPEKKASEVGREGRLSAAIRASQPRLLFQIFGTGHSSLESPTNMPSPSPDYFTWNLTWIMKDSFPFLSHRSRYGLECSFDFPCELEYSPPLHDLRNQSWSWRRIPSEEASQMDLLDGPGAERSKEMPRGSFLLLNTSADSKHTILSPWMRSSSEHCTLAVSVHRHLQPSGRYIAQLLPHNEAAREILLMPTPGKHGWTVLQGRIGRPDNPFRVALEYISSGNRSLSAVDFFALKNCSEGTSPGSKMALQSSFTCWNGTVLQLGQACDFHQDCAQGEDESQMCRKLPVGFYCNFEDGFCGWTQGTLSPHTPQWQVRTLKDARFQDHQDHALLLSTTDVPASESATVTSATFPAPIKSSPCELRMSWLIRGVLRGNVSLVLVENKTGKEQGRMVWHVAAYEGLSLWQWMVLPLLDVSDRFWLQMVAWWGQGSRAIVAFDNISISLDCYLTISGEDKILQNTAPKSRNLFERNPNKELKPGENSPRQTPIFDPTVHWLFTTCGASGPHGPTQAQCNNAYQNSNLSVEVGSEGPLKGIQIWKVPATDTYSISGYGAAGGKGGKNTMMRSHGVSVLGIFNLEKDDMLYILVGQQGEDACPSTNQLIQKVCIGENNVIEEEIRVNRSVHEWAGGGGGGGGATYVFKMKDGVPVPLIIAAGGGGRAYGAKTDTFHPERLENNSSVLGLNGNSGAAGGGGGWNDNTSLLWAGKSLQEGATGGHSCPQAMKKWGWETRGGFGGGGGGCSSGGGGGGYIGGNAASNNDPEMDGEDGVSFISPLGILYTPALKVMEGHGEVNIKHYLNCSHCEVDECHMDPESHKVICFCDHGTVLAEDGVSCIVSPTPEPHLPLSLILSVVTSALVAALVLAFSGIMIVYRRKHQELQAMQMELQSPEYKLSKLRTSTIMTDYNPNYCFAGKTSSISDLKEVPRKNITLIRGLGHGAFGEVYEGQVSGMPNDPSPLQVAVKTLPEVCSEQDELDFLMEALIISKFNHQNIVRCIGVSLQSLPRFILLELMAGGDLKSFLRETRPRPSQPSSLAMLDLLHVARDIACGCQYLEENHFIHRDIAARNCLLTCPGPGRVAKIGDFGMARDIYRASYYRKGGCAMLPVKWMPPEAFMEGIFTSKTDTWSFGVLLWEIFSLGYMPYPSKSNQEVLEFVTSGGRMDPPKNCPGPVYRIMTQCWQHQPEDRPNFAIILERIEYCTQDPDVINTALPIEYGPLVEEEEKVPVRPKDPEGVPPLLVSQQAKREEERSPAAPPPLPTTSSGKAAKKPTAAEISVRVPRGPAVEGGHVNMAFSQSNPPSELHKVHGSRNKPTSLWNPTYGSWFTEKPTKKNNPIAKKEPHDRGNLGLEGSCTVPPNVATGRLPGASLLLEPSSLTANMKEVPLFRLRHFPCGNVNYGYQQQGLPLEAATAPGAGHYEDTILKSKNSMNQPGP
readout-kind: pIC50
Give bare numbers, as −log10 of the molar value.

{"line-notation": "C[C@@H]1COc2cn3ncc4c3nc2N1Cc1cc(F)cnc1OCCCNC4=O", "readout-kind": "pIC50", "result-value": 7.23}
{"line-notation": "CC[C@@H]1COc2cn3ncc4c3nc2N1Cc1cc(F)cnc1OCC1(CCC1)NC4=O", "readout-kind": "pIC50", "result-value": 7.03}
{"line-notation": "C[C@@H]1COc2cn3ncc4c3nc2N1Cc1cc(F)cnc1OCC(F)(F)CNC4=O", "readout-kind": "pIC50", "result-value": 7.50}
{"line-notation": "COC[C@H]1COc2ncc(F)cc2CN2c3nc4c(cnn4cc3OC[C@H]2C)C(=O)N1", "readout-kind": "pIC50", "result-value": 5.70}

Looking up C[C@@H]1COc2cn3ncc4c3nc2N1Cc1cc(F)cnc1OCCC(C)(C)NC4=O , I see its pIC50 listed as 7.45

---

Record form. Attribute: pIC50. Fill in for each entry.
molecular target: BaF3 EML4-ALK (Homo sapiens, UniProt Q9UM73); construct: The EML4-ALK gene (variant 1) was synthesized at GenScript and cloned into pCDH-CMV-MCS-EF1-Puro plasmid (System Biosciences, Inc); fused on or other part: EML4 N-terminal part (variant 1: exons 1-13, with the coiled-coil that oligomerises the fusion) fused to the intracellular part of ALK, which contains the kinase domain; Q9HC35 (Echinoderm microtubule-associated protein-like 4); test: Cell proliferation assay (CellTiter-Glo); type: cell-based; settings: anti-cell proliferation, 72 hours
Answers are plain numbers, as −log10 of the molar value.

// solved cases for pIC50 follow
{"line-notation": "C[C@H]1CNC(=O)c2cnn3cc4c(nc23)N(Cc2cc(F)cnc2O1)C1(CC1)CO4", "pIC50": 6.22}
{"line-notation": "C[C@@H]1CCOc2cn3ncc4c3nc2N1Cc1c(ccc(F)c1Cl)O[C@@H](C)CNC4=O", "pIC50": 5.71}
{"line-notation": "C[C@@H]1COc2cn3ncc4c3nc2N1Cc1cc(F)cnc1O[C@H](CO)CNC4=O", "pIC50": 5.40}
{"line-notation": "C[C@@H]1COc2cn3ncc4c3nc2N1Cc1cc(F)cnc1OCC1(CC1)CNC4=O", "pIC50": 7.49}
{"line-notation": "C[C@@H]1COc2cn3ncc4c3nc2N(Cc2cc(F)ccc2OC[C@@H](C)NC4=O)C1", "pIC50": 5.88}

Hi there! I need pIC50 for each item below, if you can.
1. C[C@@H]1COc2ncc(F)cc2CN2c3nc4c(cnn4cc3OC[C@H]2CC#N)C(=O)N1
2. C[C@H]1CNC(=O)c2cnn3cc4c(nc23)N(CCO4)Cc2c(ccc(F)c2Cl)O1

Reply:
1. 5.93
2. 6.01

---

target: ROS1 (Homo sapiens); construct: purchased Reaction Biology Corporation; assay: Biochemical kinase assay (Reaction Biology, 33P ATP); details: 10 μM ATP
Sequence (P08922 28-2347): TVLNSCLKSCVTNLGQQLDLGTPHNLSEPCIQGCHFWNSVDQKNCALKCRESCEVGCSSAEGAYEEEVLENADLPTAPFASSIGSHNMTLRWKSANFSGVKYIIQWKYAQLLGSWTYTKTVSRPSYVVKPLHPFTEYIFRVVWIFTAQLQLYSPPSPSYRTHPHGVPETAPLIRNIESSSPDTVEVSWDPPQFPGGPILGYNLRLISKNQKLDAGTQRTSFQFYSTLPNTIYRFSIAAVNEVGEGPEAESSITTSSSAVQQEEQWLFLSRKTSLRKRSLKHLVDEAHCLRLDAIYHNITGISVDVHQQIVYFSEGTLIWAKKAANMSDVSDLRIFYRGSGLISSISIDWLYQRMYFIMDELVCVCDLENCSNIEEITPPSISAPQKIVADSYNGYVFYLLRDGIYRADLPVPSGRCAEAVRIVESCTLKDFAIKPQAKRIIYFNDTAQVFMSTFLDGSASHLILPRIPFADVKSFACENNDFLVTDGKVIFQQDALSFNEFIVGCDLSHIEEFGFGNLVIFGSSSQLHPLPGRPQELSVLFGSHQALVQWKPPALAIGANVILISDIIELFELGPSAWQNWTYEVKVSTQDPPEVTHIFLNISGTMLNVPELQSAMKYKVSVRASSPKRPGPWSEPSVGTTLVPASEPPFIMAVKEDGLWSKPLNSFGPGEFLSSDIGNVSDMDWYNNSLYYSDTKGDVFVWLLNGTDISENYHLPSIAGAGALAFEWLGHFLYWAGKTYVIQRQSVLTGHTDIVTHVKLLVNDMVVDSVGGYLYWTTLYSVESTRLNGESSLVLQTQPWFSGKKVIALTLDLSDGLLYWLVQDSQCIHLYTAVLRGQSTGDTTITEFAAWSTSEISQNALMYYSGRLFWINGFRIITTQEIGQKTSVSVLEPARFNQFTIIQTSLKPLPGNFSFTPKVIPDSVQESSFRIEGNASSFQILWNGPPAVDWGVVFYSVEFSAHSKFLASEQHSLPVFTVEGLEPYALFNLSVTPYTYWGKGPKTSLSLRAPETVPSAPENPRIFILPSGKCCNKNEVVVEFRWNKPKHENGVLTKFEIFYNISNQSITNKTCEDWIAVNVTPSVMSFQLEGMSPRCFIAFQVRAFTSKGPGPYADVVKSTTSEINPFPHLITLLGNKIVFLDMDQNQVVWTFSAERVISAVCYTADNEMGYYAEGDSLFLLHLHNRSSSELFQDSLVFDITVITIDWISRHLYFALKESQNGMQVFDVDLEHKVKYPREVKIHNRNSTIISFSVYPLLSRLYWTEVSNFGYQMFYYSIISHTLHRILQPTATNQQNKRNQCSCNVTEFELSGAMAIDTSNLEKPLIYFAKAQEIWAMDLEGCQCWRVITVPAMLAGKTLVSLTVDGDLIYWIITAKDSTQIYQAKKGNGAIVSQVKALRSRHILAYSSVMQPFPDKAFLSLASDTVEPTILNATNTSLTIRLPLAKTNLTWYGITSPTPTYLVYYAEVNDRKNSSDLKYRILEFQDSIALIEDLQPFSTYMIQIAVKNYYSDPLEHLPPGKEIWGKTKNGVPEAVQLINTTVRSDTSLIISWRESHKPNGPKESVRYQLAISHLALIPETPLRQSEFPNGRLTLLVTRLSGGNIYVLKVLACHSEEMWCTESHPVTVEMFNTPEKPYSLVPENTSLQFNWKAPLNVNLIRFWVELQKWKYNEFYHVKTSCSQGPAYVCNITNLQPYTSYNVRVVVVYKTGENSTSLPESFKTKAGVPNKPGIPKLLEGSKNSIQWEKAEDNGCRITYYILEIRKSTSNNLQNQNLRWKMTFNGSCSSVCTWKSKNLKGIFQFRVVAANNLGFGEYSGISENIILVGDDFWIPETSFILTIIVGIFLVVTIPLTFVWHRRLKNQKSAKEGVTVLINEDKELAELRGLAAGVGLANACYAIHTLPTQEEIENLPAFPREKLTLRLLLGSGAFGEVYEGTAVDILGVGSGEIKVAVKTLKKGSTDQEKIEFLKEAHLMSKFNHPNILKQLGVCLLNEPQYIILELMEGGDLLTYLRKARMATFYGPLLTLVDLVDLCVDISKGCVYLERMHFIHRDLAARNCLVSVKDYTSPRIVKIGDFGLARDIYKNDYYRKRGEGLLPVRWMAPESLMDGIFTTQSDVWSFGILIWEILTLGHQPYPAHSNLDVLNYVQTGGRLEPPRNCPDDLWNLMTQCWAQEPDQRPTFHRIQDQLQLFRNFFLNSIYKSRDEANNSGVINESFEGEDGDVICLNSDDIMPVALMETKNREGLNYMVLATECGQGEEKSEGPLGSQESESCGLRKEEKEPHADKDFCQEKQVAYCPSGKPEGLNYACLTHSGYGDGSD
readout-kind: IC50
Enter the number, and then the unit.

Field IC50 (ROS1 (Homo sapiens)), entry C[C@@H]1COc2cn3ncc4c3nc2N1Cc1cc(F)cc(F)c1O[C@@H](C)CNC4=O : 0.111 nM

---

test system: KM12 (TPM3-TRKA); assay: Cell proliferation assay (CellTiter-Glo); format: cell-based; conditions: Homo sapiens, anti-cell proliferation, 72 hours
readout-kind: pIC50
Answers are plain numbers, as −log10 of the molar value.

// solved cases for pIC50 follow
{"line-notation": "C[C@@H]1COc2ncc(F)cc2CN2CC(F)(F)COc3cn4ncc(c4nc32)C(=O)N1", "pIC50": 7.08}
{"line-notation": "C[C@@H]1COc2ncc(F)cc2CN2c3nc4c(cnn4cc3OC[C@H]2CN=[N+]=[N-])C(=O)N1", "pIC50": 9.70}
{"line-notation": "CO[C@@H]1COc2cn3ncc4c3nc2N(Cc2cc(F)cnc2O[C@@H](C)CNC4=O)C1", "pIC50": 7.19}

Now examine the next entry.
Looking up C[C@@H]1COc2ncc(F)cc2CN2C[C@H](O)COc3cn4ncc(c4nc32)C(=O)N1 , I see its pIC50 listed as 6.32

---

test system: KM12 (TPM3-TRKA); experiment: Cell proliferation assay (CellTiter-Glo); type: cell-based; conditions: Homo sapiens, anti-cell proliferation, 72 hours
readout-kind: IC50

// solved cases for IC50 follow
{"line-notation": "C[C@@H]1COc2cn3ncc4c3nc2N1Cc1cc(F)cc(F)c1O[C@@H](C)CNC4=O", "IC50": "0.2 nM"}
{"line-notation": "C[C@@H]1COc2cn3ncc4c3nc2N1Cc1cc(F)cnc1OCCC(C)(C)NC4=O", "IC50": "< 0.2 nM"}
{"line-notation": "C[C@@H]1COc2cn3ncc4c3nc2N1Cc1cc(F)cnc1OCC1(CC1)CNC4=O", "IC50": "< 0.2 nM"}
{"line-notation": "C[C@@H]1COc2ncc(F)cc2CN2c3nc4c(cnn4cc3OCC2(C)C)C(=O)N1", "IC50": "< 0.2 nM"}
{"line-notation": "C[C@H]1CNC(=O)c2cnn3cc4c(nc23)N(Cc2cc(F)cnc2O1)C[C@H](O)CO4", "IC50": "94.8 nM"}
{"line-notation": "C[C@H]1CNC(=O)c2cnn3cc4c(nc23)N(Cc2cc(F)ccc2O1)[C@H](CO)CO4", "IC50": "0.8 nM"}

Hi there! I need IC50 for each item below, if you can.
1. C[C@@H]1COc2cn3ncc4c3nc2N1Cc1cc(F)cnc1OCC1(CCC1)NC4=O
2. C[C@H]1CNC(=O)c2cnn3cc4c(nc23)N(CCCO4)Cc2cc(F)ccc2O1

Reply:
["< 0.2 nM", "< 0.2 nM"]

---

system: KM12 (TPM3-TRKA); assay: Cell proliferation assay (CellTiter-Glo); format: cell-based; details: Homo sapiens, anti-cell proliferation, 72 hours
pIC50: −log10 of the molar value.
Record form. Attribute: pIC50. Fill in for each entry.

{"line-notation": "C[C@H]1CNC(=O)c2cnn3cc4c(nc23)N(Cc2cc(F)ccc2O1)[C@@H](C)CCO4", "readout-kind": "pIC50", "result-value": "> 9.70"}

Hi there! I need pIC50 for each item below, if you can.
1. C[C@@H]1COc2cn3ncc4c3nc2N1Cc1cc(F)cnc1OC[C@@H](O)CNC4=O
2. C[C@@H]1COc2cn3ncc4c3nc2N1Cc1cc(F)cnc1OC[C@@H](C(F)(F)F)NC4=O

Reply:
> 9.70
> 9.70

Field pIC50 (KM12 (TPM3-TRKA)), entry C[C@@H]1COc2cn3ncc4c3nc2N1Cc1cc(F)ccc1O[C@@H](C)CNC4=O : 9.70

---

Record form. Attribute: IC50. Fill in for each entry.
target: BaF3 EML4-ALK (Homo sapiens, UniProt Q9UM73); construct: The EML4-ALK gene (variant 1) was synthesized at GenScript and cloned into pCDH-CMV-MCS-EF1-Puro plasmid (System Biosciences, Inc); fused on or other part: EML4 N-terminal part (variant 1: exons 1-13, with the coiled-coil that oligomerises the fusion) fused to the intracellular part of ALK, which contains the kinase domain; Q9HC35 (Echinoderm microtubule-associated protein-like 4); test: Cell proliferation assay (CellTiter-Glo); assay type: cell-based; conditions: anti-cell proliferation, 72 hours
Numbers only, in nM.

{"line-notation": "CC[C@@H]1COc2cn3ncc4c3nc2N1Cc1cc(F)ccc1O[C@@H](C)CNC4=O", "readout-kind": "IC50", "result-value": 20.6}
{"line-notation": "C[C@@H]1COc2ncc(F)cc2[C@@H](C)N2c3nc4c(cnn4cc3OC[C@H]2C)C(=O)N1", "readout-kind": "IC50", "result-value": 139}
{"line-notation": "C[C@@H]1COc2cn3ncc4c3nc2N1Cc1cc(F)cnc1O[C@H]1CCC[C@H]1NC4=O", "readout-kind": "IC50", "result-value": 55.1}

Hi there! I need IC50 for each item below, if you can.
1. C[C@@H]1COc2ccc(F)cc2CN2c3nc4c(cnn4cc3OC[C@H]2C)C(=O)N1
2. C[C@@H]1COc2cn3ncc4c3nc2N1Cc1cc(F)cnc1OCCC1(CCC1)NC4=O
3. CC[C@@H]1COc2cn3ncc4c3nc2N1Cc1cc(F)cnc1OCC(C)(C)CNC4=O

Reply:
11.7
349
35.3

Hi there! I need IC50 for each item below, if you can.
1. CC[C@@H]1COc2ncc(F)cc2CN2c3nc4c(cnn4cc3OC[C@H]2C)C(=O)N1
2. C[C@@H]1COc2ncc(F)cc2CN2c3nc4c(cnn4cc3OCC23CCCC3)C(=O)N1

Reply:
[104, 1020]

All figures here come from patent US20210087206A1.
